# ASSAY SYSTEM: CETP activity in the serum (Homo sapiens, UniProt P11597)
# Construct: from tissue; host or cells: serum of transgenic hCETP mice
# Sequence (P11597 18-493): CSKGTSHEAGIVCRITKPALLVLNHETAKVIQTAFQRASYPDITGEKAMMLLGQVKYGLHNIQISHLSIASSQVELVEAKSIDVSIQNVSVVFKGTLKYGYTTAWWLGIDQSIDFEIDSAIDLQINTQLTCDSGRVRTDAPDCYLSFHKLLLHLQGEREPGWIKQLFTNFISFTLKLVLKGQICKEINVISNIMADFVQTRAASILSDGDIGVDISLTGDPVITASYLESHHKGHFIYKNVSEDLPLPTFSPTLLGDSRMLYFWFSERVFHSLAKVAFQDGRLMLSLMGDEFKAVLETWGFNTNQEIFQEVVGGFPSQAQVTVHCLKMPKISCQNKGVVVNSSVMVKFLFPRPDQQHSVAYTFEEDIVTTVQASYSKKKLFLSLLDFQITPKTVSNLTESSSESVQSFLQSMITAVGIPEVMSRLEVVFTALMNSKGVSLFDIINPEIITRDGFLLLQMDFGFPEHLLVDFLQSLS
# MEASUREMENT PROTOCOL: Measurement of the ex vivo activities on transgenic hCETP mice
# Type: in vivo
# TEST CONDITIONS: mouse; 30 mg/kg oral, 2 h after administration, serum cholesteryl ester transport; read-out: % inhibition at 30 mg/kg 2 h
OBSERVATION TYPE: inhibition at 30 mg/kg (%)

>>> df
                                   compound  unit_name  measured
0  COc1c([C@@H](O)CC(C)C)ccc2c1C(=O)OCc1c(Cl)c(C)c(Cl)c(OC(=O)C3(C)CC4CCC3C4)c1O2 (stereo partly drawn) [Example B-81]          %        55
1  COc1c([C@@H](O)CC(C)C)ccc2c1C(=O)OCc1c(C)c(C)c(C)c(OC(=O)C3(C)CC4CCC3C4)c1O2 (stereo partly drawn) [Example B-70]          %        44
2  COc1c([C@@H](O)CC(C)C)ccc2c1C(=O)OCc1c(Br)c(C)c(Br)c(OC(=O)C3(C)CC4CCC3C4)c1O2 (stereo partly drawn) [Example B-69]          %        27
3  COc1c([C@@H](O)CC(C)C)ccc2c1C(=O)OCc1c(Cl)c(C)c(Br)c(OC(=O)[C@]3(C)CC4C=CC3C4)c1O2 (stereo partly drawn) [Example C-31]          %        64

(I) COc1c([C@@H](O)CC(C)C)ccc2c1C(=O)OCc1c(Cl)c(C)c(Br)c(OC(=O)C3(C)CC4CCC3C4)c1O2 (stereo partly drawn) [Example B-45]
(II) COc1c([C@@H](O)CC(C)C)ccc2c1C(=O)OCc1c(Cl)c(C)c(Cl)c(OC(=O)C3(C)CCCCC3)c1O2 [Example B-84]
Between I and II , whose recorded inhibition at 30 mg/kg is greater? Pick one; state its label.
I

----------
# ASSAY SYSTEM: CETP activity in the serum (Homo sapiens, UniProt P11597)
# Construct: from tissue; host or cells: serum of transgenic hCETP mice
# Sequence (P11597 18-493): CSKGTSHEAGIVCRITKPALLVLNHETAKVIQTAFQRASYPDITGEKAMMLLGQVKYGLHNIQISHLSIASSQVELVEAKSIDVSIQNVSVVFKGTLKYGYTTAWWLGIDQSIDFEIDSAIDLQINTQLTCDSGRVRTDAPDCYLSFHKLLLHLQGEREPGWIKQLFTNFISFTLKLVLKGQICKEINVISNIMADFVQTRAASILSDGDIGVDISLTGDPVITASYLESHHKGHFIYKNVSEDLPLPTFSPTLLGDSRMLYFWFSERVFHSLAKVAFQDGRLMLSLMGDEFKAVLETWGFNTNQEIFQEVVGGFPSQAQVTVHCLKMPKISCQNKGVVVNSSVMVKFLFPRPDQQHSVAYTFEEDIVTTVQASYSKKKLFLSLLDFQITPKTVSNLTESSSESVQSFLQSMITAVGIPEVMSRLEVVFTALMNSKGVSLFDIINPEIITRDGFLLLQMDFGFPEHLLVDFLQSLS
# MEASUREMENT PROTOCOL: Measurement of the ex vivo activities on transgenic hCETP mice
# Type: in vivo
# TEST CONDITIONS: mouse; 30 mg/kg oral, 1 h after administration, serum cholesteryl ester transport; read-out: % inhibition at 30 mg/kg 1 h
OBSERVATION TYPE: inhibition at 30 mg/kg (%)

>>> print(df.to_string())
                                   molecule  measured
0  COc1c([C@@H](O)CC(C)C)ccc2c1C(=O)OCc1c(Br)c(C)c(Br)c(OC(=O)C3(C)CC4CCC3C4)c1O2 (stereo partly drawn)        55
1  COCc1c(C)c(Cl)c2c(c1OC(=O)C1(C)C3CCC1CC3)Oc1ccc(C(O)CC(C)(C)C)c(OC)c1C(=O)OC2 (stereo not drawn)        60

(I) COc1c([C@@H](O)CC(C)C)ccc2c1C(=O)OCc1c(C)c(C)c(C)c(OC(=O)C3(C)CC4CCC3C4)c1O2 (stereo partly drawn)
(II) COc1c([C@@H](O)CC(C)C)ccc2c1C(=O)OCc1c(Cl)c(C)c(Br)c(OC(=O)[C@]3(C)CC4C=CC3C4)c1O2 (stereo partly drawn)
(III) COc1c([C@@H](O)CC(C)C)ccc2c1C(=O)OCc1cc(C)c(C3CC3)c(OC(=O)C3(C)C4CCC3CC4)c1O2 (stereo partly drawn)
Order each entry by recorded inhibition at 30 mg/kg, climbing from the minimum. # list labels per requested ordering
I, III, II

----------
# ASSAY SYSTEM: CETP (Homo sapiens)
# Construct: enriched CETP fraction, obtained from human plasma by means of hydrophobic chromatography; from tissue; host or cells: human plasma
# Sequence (P11597 18-493): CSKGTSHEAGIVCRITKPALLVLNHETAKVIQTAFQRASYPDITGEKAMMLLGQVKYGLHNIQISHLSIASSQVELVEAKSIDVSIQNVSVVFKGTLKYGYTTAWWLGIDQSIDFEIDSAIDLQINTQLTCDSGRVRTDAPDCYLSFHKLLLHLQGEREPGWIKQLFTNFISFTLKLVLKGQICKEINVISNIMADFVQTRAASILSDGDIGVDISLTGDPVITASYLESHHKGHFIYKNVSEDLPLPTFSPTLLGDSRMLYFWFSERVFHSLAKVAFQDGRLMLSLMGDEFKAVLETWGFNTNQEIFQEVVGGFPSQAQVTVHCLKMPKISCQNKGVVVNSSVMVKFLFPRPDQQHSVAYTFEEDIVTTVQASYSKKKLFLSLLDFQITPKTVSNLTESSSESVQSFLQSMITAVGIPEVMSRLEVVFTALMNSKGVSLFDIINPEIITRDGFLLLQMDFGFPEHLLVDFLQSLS
# MEASUREMENT PROTOCOL: CETP fluorescence test
# Assay type: biochemical
# TEST CONDITIONS: CETP from human plasma, transfer of fluorescent cholesterol ester between liposomes, 37° C., 4 hours; read-out: IC50 [nM] Fluor. test
OBSERVATION TYPE: IC50 (nM)

                                   compound  measured
0  COc1c([C@@H](O)CC(C)C)ccc2c1C(=O)OCc1c(C)c(C)c(C)c(OC(=O)C3(C)C4CCC3CC4)c1O2 (some centres unmarked)        60
1  COc1c([C@@H](O)CC(C)C)ccc2c1C(=O)OCc1c(Cl)c(C)c(Cl)c(OC(=O)C(C)(C)C)c1O2       200
2  COc1c(C(O)CC(C)(C)C)ccc2c1C(=O)OCc1c(Cl)c(C)c(C3CC3)c(OC(=O)C3(C)C4CCC3CC4)c1O2 (centres unmarked)        60

(A) COc1c([C@@H](O)CC(C)C)ccc2c1C(=O)OCc1c(C)c(C)c(C)c(OC(=O)C(C)(C)C)c1O2
(B) COc1c([C@@H](O)CC(C)C)ccc2c1C(=O)OCc1c(Cl)c(C)c(Br)c(OC(=O)C3(C)C4CCC3CC4)c1O2 (some centres unmarked)
Which value of IC50 is numerically greater: that of A or that of B ? Kindly give the label for the entry you pick.
A
(A: 200 nM, B: 60 nM)

----------
# ASSAY SYSTEM: CETP (Homo sapiens, UniProt P11597)
# Construct: enriched CETP fraction, obtained from human plasma by means of hydrophobic chromatography; from tissue; host or cells: human plasma
# MEASUREMENT PROTOCOL: CETP fluorescence test
# Assay type: biochemical
# TEST CONDITIONS: CETP from human plasma, transfer of fluorescent cholesterol ester between liposomes, 37° C., 4 hours; read-out: IC50 [nM] Fluor. test
OBSERVATION TYPE: IC50 (nM)

Worked set:
>>> df
                                   molecule  observation_type  measured
0  COc1c([C@@H](O)CC(C)C)ccc2c1C(=O)OCc1c(Br)c(C)c(Br)c(OC(=O)C3(C)CC4CCC3C4)c1O2 (some centres unmarked) [Example B-69]              IC50       100
1  COc1c([C@@H](O)CC(C)C)ccc2c1C(=O)OC(C)c1cc(C)cc(OC(=O)C3(C)C4CCC3CC4)c1O2 (some centres unmarked) [Example C-120]              IC50       100
2  COc1c([C@@H](O)CC(C)C)ccc2c1C(=O)OCc1c(C)c(C)c(C)c(OC(=O)C3(C)CC4CCC3C4)c1O2 (some centres unmarked) [Example B-70]              IC50       150
3  COc1c(C(O)CC(C)C)ccc2c1C(=O)OCc1c(F)c(C)cc(OCCC(C)C)c1O2 (centres unmarked) [Example A-64]              IC50       500
4  COc1c([C@@H](O)CC(C)C)ccc2c1C(=O)OCc1cc(C)cc(OC(=O)N3C4CCC3CC4)c1O2 [Example B-147]              IC50       200
5  COc1c(C(O)CC(C)C)ccc2c1C(=O)OCc1cc(C)cc(C#CCC(C)C)c1O2 (centres unmarked) [Example A-63]              IC50      2000

(I) COCc1c(C)c(Cl)c2c(c1OC(=O)C1(C)C3CCC1CC3)Oc1ccc([C@@H](O)CC(C)C)c(OC)c1C(=O)OC2 (some centres unmarked) [Example C-66]
(II) COc1c([C@@H](O)CC(C)C)ccc2c1C(=O)OCc1c(Cl)c(C)c(Br)c(OC(=O)C3CCC3)c1O2 [Example B-50]
Parameter check: reported IC50 is higher for which label, I or II ? To answer, give the label that identifies your chosen option.
II
(II: 250 nM, I: 50 nM)
